Test system: Saccharomyces cerevisiae
Assay: protein stability index of tFT-peptide fusion (C-terminal peptide) (PSI (0-1 scale)); higher = more stable (slower turnover)
Details: genetic background: wild type; temperature: 30 C
Provide the recorded protein stability index for the entries that follow.
// return a plain number; no unit text

Query (sequence): EYRCVAQHSLLH ; field requested: protein stability index 0.743

Query (sequence): SFRDSFVNFGVF ; field requested: protein stability index 0.695

Query (sequence): RGVCGVGLYTGG ; field requested: protein stability index 0.657

Query (sequence): RGWWVLCGGGWG ; field requested: protein stability index 0.567

Query (sequence): KGGREARRERRD ; field requested: protein stability index 0.672

Query (sequence): PTSDSPSLALPC ; field requested: protein stability index 0.71

Query (sequence): AVQTTGRAGRVG ; field requested: protein stability index 0.683

Query (sequence): GGWGTGTSGQGR ; field requested: protein stability index 0.715

Query (sequence): ACSHFLEEFCFF ; field requested: protein stability index 0.75

Query (sequence): AISVCCFLCEFF ; field requested: protein stability index 0.509

Query (sequence): FFITFGFSSGSR ; field requested: protein stability index 0.675

Query (sequence): LSRFRYFVLTSL ; field requested: protein stability index 0.261

Query (sequence): AKNQSTGCKKKV ; field requested: protein stability index 0.684

Query (sequence): IGTRHIKILGRY ; field requested: protein stability index 0.698

Query (sequence): TERGRLVWYCMR ; field requested: protein stability index 0.674

Query (sequence): SGHSRCSPALPV ; field requested: protein stability index 0.712

Query (sequence): TRGAGAKYSSVR ; field requested: protein stability index 0.721

Query (sequence): FFCLVEVFVGVF ; field requested: protein stability index 0.28

Query (sequence): RKVWSLCWFVHL ; field requested: protein stability index 0.116

---

Tested on: Saccharomyces cerevisiae;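 note: PSI is a weighted mean of sequencing reads over stability bins, variants kept only with over 10 reads, mCherry proximal and sfGFP distal, peptide attached via GGGS linker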
Assay: protein stability index of tFT-peptide fusion (C-terminal peptide) (PSI (0-1 scale)); higher = more stable (slower turnover)
Settings: genetic background: wild type; temperature: 30 C
protein stability index below 0.7 gives f; protein stability index at or above it gives t.

Textbook exercise: given the entry RKKRFENKKEKY , state whether its protein stability index is greater than or equal to 0.7. t

Textbook exercise: given the entry SLSLPSSVIVGS , state whether its protein stability index is greater than or equal to 0.7. f

Textbook exercise: given the entry GLADPPNSRPAG , state whether its protein stability index is greater than or equal to 0.7. f

Textbook exercise: given the entry AFVALCACVIFV , state whether its protein stability index is greater than or equal to 0.7. f

Textbook exercise: given the entry RSRYRLFRADLS , state whether its protein stability index is greater than or equal to 0.7. t

Textbook exercise: given the entry YRLAPPPHPPPP , state whether its protein stability index is greater than or equal to 0.7. f

Textbook exercise: given the entry SVGLTGHGTRGV , state whether its protein stability index is greater than or equal to 0.7. f

Textbook exercise: given the entry RSYLLVWTSRLH , state whether its protein stability index is greater than or equal to 0.7. f

Textbook exercise: given the entry PTTRSAPPPCIA , state whether its protein stability index is greater than or equal to 0.7. f

Textbook exercise: given the entry TRYGVRVPGRFR , state whether its protein stability index is greater than or equal to 0.7. f

Textbook exercise: given the entry KNKEISQIYIKN , state whether its protein stability index is greater than or equal to 0.7. f

Textbook exercise: given the entry LIRPSAPSHRSP , state whether its protein stability index is greater than or equal to 0.7. t

Textbook exercise: given the entry GRSCAFCRVSRG , state whether its protein stability index is greater than or equal to 0.7. t

Textbook exercise: given the entry PLRAPPHPPPVP , state whether its protein stability index is greater than or equal to 0.7. f

Textbook exercise: given the entry LPHPPPLPTPPP , state whether its protein stability index is greater than or equal to 0.7. t

Textbook exercise: given the entry GIMFVSEPVLSS , state whether its protein stability index is greater than or equal to 0.7. f

Textbook exercise: given the entry SRSFFRRLLFCF , state whether its protein stability index is greater than or equal to 0.7. f

Textbook exercise: given the entry GGTGGAGSRGQI , state whether its protein stability index is greater than or equal to 0.7. f

Textbook exercise: given the entry PLWCLPSLPPPF , state whether its protein stability index is greater than or equal to 0.7. t

Textbook exercise: given the entry WHSGVICQTVLM , state whether its protein stability index is greater than or equal to 0.7. f

Textbook exercise: given the entry PPPSPLLLFPPL , state whether its protein stability index is greater than or equal to 0.7. f

Textbook exercise: given the entry PGIAVPTGTSYV , state whether its protein stability index is greater than or equal to 0.7. f

Textbook exercise: given the entry IVEERLFWKMWE , state whether its protein stability index is greater than or equal to 0.7. f

Textbook exercise: given the entry MLYFSGLQVTIL , state whether its protein stability index is greater than or equal to 0.7. f

Textbook exercise: given the entry VGPWQVQRLLWT , state whether its protein stability index is greater than or equal to 0.7. f

Textbook exercise: given the entry VYFRYWLLVVVF , state whether its protein stability index is greater than or equal to 0.7. f

Textbook exercise: given the entry WGGCNTALLTIL , state whether its protein stability index is greater than or equal to 0.7. f
